STUDY_TARGET: T1, human CDH6 on tumor cells (OVCAR3 cells, PA-1 cells) (human, UniProt P55285 54-790)
T1 sequence: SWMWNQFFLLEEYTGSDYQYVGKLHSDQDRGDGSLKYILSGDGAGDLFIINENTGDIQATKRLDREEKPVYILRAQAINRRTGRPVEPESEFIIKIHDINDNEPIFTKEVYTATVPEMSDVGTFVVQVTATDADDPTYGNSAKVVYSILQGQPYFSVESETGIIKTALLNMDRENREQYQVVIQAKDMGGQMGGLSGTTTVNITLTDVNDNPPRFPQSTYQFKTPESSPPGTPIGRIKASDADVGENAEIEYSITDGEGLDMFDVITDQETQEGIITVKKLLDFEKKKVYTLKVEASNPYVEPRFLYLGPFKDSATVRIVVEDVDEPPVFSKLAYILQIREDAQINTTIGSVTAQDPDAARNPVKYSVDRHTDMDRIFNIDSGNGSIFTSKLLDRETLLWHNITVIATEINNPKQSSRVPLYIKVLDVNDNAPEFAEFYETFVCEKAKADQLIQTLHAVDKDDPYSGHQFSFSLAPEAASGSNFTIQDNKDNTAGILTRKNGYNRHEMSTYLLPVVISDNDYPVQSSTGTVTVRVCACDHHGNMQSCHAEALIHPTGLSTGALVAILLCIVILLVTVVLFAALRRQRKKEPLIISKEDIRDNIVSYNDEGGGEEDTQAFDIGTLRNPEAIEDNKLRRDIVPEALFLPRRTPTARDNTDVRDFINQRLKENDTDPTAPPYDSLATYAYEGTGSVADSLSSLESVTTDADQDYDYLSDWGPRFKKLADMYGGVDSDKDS
PROTOCOL: FACS, PA-1 cells
MEASURED_ATTRIBUTE: Max MFI (MFI)
// return numeric value only (unit: MFI, not printed)

Known results for binders:
hCDH6-14-H1L3 (antibody, V domains shown, Humanized) VH: EVQLVQSGAEVKKPGASVKVSCKASGYTFTDNYINWVRQAPGQRLEWMGWIYPGTGNSYYNEKFKGRVTITVDTSASTAYMELSSLRSEDTAVYYCASSYGDSFDYWGQGTTVTVSS VL: DIVMTQSPDSLAVSLGERATINCRASQDIRNYLNWYQQKPGQTPKLLISYTSRLHSGVPDRFSGSGSGTDFTLTISSLQAEDVAVYYCQQYSQLPWTFGGGTKVEIK	3580
hCDH6-14-H5L3 (antibody, V domains shown, Humanized) VH: EVQLQQSGAEVKKPGASVKVSCKASGYTFTDNYINWVRQAPGQRLEWMGWIYPGTGNSYYNEKFKGRVTITVDTSASTAYMELSSLRSEDTAVYYCASSYGDSFDYWGQGTTVTVSS VL: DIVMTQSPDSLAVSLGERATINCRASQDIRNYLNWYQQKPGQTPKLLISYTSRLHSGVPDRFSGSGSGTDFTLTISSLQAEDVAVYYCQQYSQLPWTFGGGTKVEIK	3600

Consider now this further binder.
Look up Max MFI: hCDH6-14-H4L2 (antibody, V domains shown, Humanized) VH: EVQLVQSGAEVKKPGASVKVSCKASGYTFTDNYINWVRQAPGQGLEWMGWIYPGTGNSYYNEKFKGRVTITVDTSASTAYMELSSLRSEDTAVYYCASSYGDSFDYWGQGTTVTVSS VL: DIQMTQSPSSLSASVGDRVTITCRASQDIRNYLNWYQQKPGGAPKLLISYTSRLHSGVPSRFSGSGSGTDFTFTISSLQPEDIATYYCQQYSQLPWTFGGGTKVEIK
3570
